All values here come from PubChem BioAssay (EPA / NIEHS).

Read-out: xenobiotic metabolism (CYP1A2), CYP1A2 (gene 1544)
Assay: CLD_CYP1A2_48hr: CellzDirect (CLD) Gene Expression Assay for xenobiotic metabolism (CYP1A2) at 48 hours (AID 2283703)
Inconclusive results are not listed. Activity calls are given as the source filed them. Rule for the calls: active = hit-call score of the fitted dose curve at least 0.9, where 1 is the maximum; inconclusive = response in the unintended direction; inactive = score below 0.9.
Result category, one only: active, inactive

                       molecule  class_label
0  CCCOC(=O)c1ccc(C(=O)OCCC)nc1     inactive

Field: outcome | Entry: CCC(C)OC(=O)N1CCCCC1CCO (centres undefined)
inactive

###

Read-out: Peroxisomal acyl-coenzyme A oxidase 1 (ACOX1) gene, ACOX1 (gene 51)
Experiment: LTEA_HepaRG_ACOX1: Life Technologies and Expression Analysis (LTEA) Assay for Peroxisomal acyl-coenzyme A oxidase 1 (ACOX1) gene using HepaRG (AID 2283467)
Settings: mRNA level, 48 h; actives raise or lower the signal
Activity calls are given as the source filed them. The calls were made as follows: active = hit-call score of the fitted dose curve at least 0.9, where 1 is the maximum; inactive = score below 0.9.
Use one of these outcomes when replying: active, inactive

In [3]: df
Out[3]:
                                   compound  class_label
0      Oc1ccc(C(c2ccc(O)cc2)C(Cl)(Cl)Cl)cc1       active
1  C[C@]12C[C@H](O)[C@H]3[C@@H](CCC4=CC(=O)CC[C@@]43C)[C@@H]1CC[C@@H]2C(=O)CO     inactive
2  CCCN(CCC)c1c([N+](=O)[O-])cc(C(F)(F)F)c(N)c1[N+](=O)[O-]     inactive
3  CCCCC(CC)CN1C(=O)C2C3C=CC(C3)C2C1=O (stereo unspecified)     inactive
4            CCCCOCCOCCOCc1cc2c(cc1CCC)OCO2     inactive

Now for a further compound.
How was c1ccc(Nc2ccccc2)cc1 classified in this test?
inactive
